- Test system: SF-539 CNS
- assay: NCI-60 one-dose screen, 48 h (100 = growth as untreated, 0 = no growth, -100 = all killed)
- studyConditions: 10 µM unless noted
The panel holds about 83,000 compounds, 20% with a hit somewhere; the sample as a whole holds those more often.
Kindly state growth for each of the entries shown.
The answer is to be given in %; state only the numeric part.

Asked: What does the data say about its growth? Entry: COc1ccc(C(O)c2cc3c(N)c(C(=O)Nc4ccccc4)sc3nc2C)cc1 (centres undefined)
Given back: -25.8

Asked: What value of growth has been recorded for this entry: Cc1cc2cc3cc(C)c(N)cc3[n+](C)c2cc1N
Given back: 17.3

Asked: So what's the measured growth for this one? COc1ccc(C(=O)c2cc(C)c(OC)c(C)c2)c(OC)c1N(C(=O)C(Cl)Cl)C(=O)C(Cl)Cl
Given back: -16

Asked: Please look up its growth: Cc1nccc2c3ccc(OCc4cn(-c5ccc(Cl)cc5)nn4)cc3n(CCCc3ccccc3)c12
Given back: -16.5

Asked: Form field: reported growth of COc1cnccc1-c1nc2ccc3[nH]ncc3c2c2c1CCCC2
Given back: 35.7

Asked: Look up growth for this molecule: CC(=O)c1c[nH]c2ccc(-c3ccnc(Nc4ccc(NC(=O)C5CCCC5)c(CN5CCOCC5)c4)n3)cc12
Given back: -84.6

Asked: Data request, read-out growth, for COc1ccc(Cn2nc(-c3ccccc3)c3c2CCc2cnoc2-3)cc1
Given back: 85.4

Asked: Could you share which growth value was measured for COC(=O)N[C@H]1CCc2cc(OC)c(OC)c(OC)c2-c2ccc(SC)c(=O)cc21 ?
Given back: -27.6

Asked: Return reported growth; argument: Fc1ccc(C2CC(c3cccc(Nc4ccncc4)c3)=NN2c2ccccc2)cc1 (centres undefined)
Given back: 69.7

Asked: Data request, read-out growth, for O=C(Nc1ccccc1)Oc1ccccc1-c1ccccc1
Given back: 105

Asked: What value of growth has been recorded for this entry: CCn1cc(C2NC(=O)c3ccccc3N2)c2cccc(C)c21 (centres undefined)
Given back: -49.7

Asked: Which growth value belongs to O=C(Nc1nc2ccc(C(=O)N3CCN(c4ccc(Cl)c(Cl)c4)CC3)cc2s1)c1ccc(NCCc2ccccc2)c([N+](=O)[O-])c1 ?
Given back: 101

Asked: Any idea what growth was measured for CC1=CC[C@@H]2CC[C@]3(C)[C@H](CC[C@@H]4[C@@]5(C)CCCNC(C)(C)[C@@H]5CC[C@]43C)[C@H]2[C@@H]1C ?
Given back: 77.5

Asked: Which growth value is on record for O=C(O)c1cn(C2CC2)c2cc(N3CCN(C(=O)C[n+]4cccc5ccccc54)CC3)c(F)cc2c1=O ?
Given back: 69.1

Asked: Which growth is listed for CCNNC(=O)[C@@H]1[C@H](c2cc(OC)c(OC)c(OC)c2)c2cc3c(cc2[C@H](O)[C@H]1CO)OCO3 ?
Given back: -10.9

Asked: Recorded growth of COc1ccc(-c2nc(SC)nc(N3CCOCC3)c2C#N)cc1 , please.
Given back: 86.5

Asked: Please give the measured growth for this molecule: CC(=O)c1c(-c2ccc(OC(F)(F)F)cc2)nc2ccccn12
Given back: 92.3

Asked: Field request: growth | item: COc1c(Cl)cc(Cl)c2ccc(C=C3C(=O)N(C)C(=O)N(C)C3=O)nc12
Given back: 98.6

Asked: I would be grateful if you could share the reported growth for O=C1NC(=S)NC(=O)C1=Cc1cn(Cc2ccccn2)c2ccccc12 .
Given back: 60.7
